- study.system: KOR (Homo sapiens, UniProt P41145)
- Construct: host or cells: CHO (CHO-hKOR)
- experiment.description: [35S]GTPγS binding assay, CHO-hKOR membranes
- Format: biochemical
property.measured: pEC50
Friendly reminder that pEC50 comes from taking -log10 of the concentration in mol/L.

input: Which pEC50 is reported for this compound? CO[C@@]12CC[C@@H](NCC(=O)O)[C@@H]3Oc4c(O)ccc5c4[C@@]31CCN(C)[C@@H]2C5
output: 6.44

====

- study.system: KOR (Homo sapiens, UniProt P41145)
- Construct: host or cells: CHO (CHO-hKOR)
- experiment.description: [35S]GTPγS binding assay, CHO-hKOR membranes
- Format: biochemical
- condition.notes: [35S]GTPγS, CHO human KOR membranes; read-out: KOR EC50
In this section we review reported pEC50 values for a set of compounds.
Bear in mind: pEC50 is minus log10 of a mol/L concentration; give just that figure.

compound: CO[C@@]12CC[C@H](N[C@@H](C)C(=O)O)[C@@H]3Oc4c(O)ccc5c4[C@@]31CCN(C)[C@@H]2C5 [Compound 3a]
pEC50: 6.67

compound: CO[C@@]12CC[C@H](N[C@H](C(=O)O)C(C)C)[C@@H]3Oc4c(O)ccc5c4[C@@]31CCN(C)[C@@H]2C5 [Compound 7a]
pEC50: 6.34

input: Item CO[C@@]12CC[C@H](N[C@@H](Cc3ccccc3)C(=O)O)[C@@H]3Oc4c(O)ccc5c4[C@@]31CCN(C)[C@@H]2C5 [Compound 4a] has what recorded pEC50?
output: 6.66

input: Can you look up the measured pEC50 of CO[C@@]12CCC(N[C@@H](CCC(=O)O)C(=O)O)[C@@H]3Oc4c(O)ccc5c4[C@@]31CCN(C)[C@@H]2C5 (stereo in doubt) [Compound 14a] for me?
output: 5.93

====

- study.system: KOR (Cavia porcellus)
property.measured: log10 of Ki (log10 of the value in nM)
Give log10 of Ki, with Ki taken in nM.

molecule: CO[C@@]12CC[C@@H](NCCCC(=O)O)[C@@H]3Oc4c(O)ccc5c4[C@@]31CCN(C)[C@@H]2C5 [Compound 21b]
log10 of Ki: 2.17

input: I'm curious: which log10 of Ki was measured for CO[C@@]12CC[C@H](N[C@@H](CC(=O)O)C(=O)O)[C@@H]3Oc4c(O)ccc5c4[C@@]31CCN(C)[C@@H]2C5 [Compound 13a] tested on KOR (Cavia porcellus)?
output: 1.70

input: Write down the reported log10 of Ki of CO[C@@]12CC[C@H](NCCC(=O)O)[C@@H]3Oc4c(O)ccc5c4[C@@]31CCN(C)[C@@H]2C5 [Compound 20a] , test system: KOR (Cavia porcellus).
output: 2.26

input: Observed log10 of Ki on KOR (Cavia porcellus) for CO[C@@]12CC[C@H](NC(C)C(=O)O)[C@@H]3Oc4c(O)ccc5c4[C@@]31CCN(C)[C@@H]2C5 (stereo in doubt) [Compound 15a] , please.
output: 1.85

input: GET /values?readout=log10 of Ki&system=KOR (Cavia porcellus)&item= CO[C@@]12CC[C@@H](NC(C)C(=O)O)[C@@H]3Oc4c(O)ccc5c4[C@@]31CCN(C)[C@@H]2C5 (stereo in doubt) [Compound 15b]
output: 2.15

input: Report log10 of Ki for CC[C@H](N[C@@H]1CC[C@@]2(OC)[C@H]3Cc4ccc(O)c5c4[C@@]2(CCN3C)[C@H]1O5)C(=O)O [Compound 19b] tested on KOR (Cavia porcellus).
output: 2.30

input: Please state recorded log10 of Ki (tested on KOR (Cavia porcellus)) of CO[C@@]12CC[C@@H](N[C@H](Cc3ccccc3)C(=O)O)[C@@H]3Oc4c(O)ccc5c4[C@@]31CCN(C)[C@@H]2C5 [Compound 17b]
output: 2.14

====

Entries annotated with measured Ki
- study.system: MOR (Rattus norvegicus, UniProt P33535)

compound: CO[C@@]12CC[C@H](NCCCC(=O)O)[C@@H]3Oc4c(O)ccc5c4[C@@]31CCN(C)[C@@H]2C5 [Compound 21a]
assay.result: 0.77 nM
--
compound: CO[C@@]12CC[C@H](N[C@@H](CC(=O)O)C(=O)O)[C@@H]3Oc4c(O)ccc5c4[C@@]31CCN(C)[C@@H]2C5 [Compound 13a]
assay.result: 1.36 nM
--
compound: CO[C@@]12CC[C@H](N[C@H](C(=O)O)C3CCCCC3)[C@@H]3Oc4c(O)ccc5c4[C@@]31CCN(C)[C@@H]2C5 [Compound 18a]
assay.result: 1.23 nM
--
compound: CO[C@@]12CC[C@H](N[C@@H](Cc3c[nH]c4ccccc34)C(=O)O)[C@@H]3Oc4c(O)ccc5c4[C@@]31CCN(C)[C@@H]2C5 [Compound 10a]
assay.result: 0.36 nM
--
compound: CO[C@@]12CC[C@@H](N[C@@H](C(=O)O)C(C)C)[C@@H]3Oc4c(O)ccc5c4[C@@]31CCN(C)[C@@H]2C5 [Compound 16b]
assay.result: 1.02 nM

// moving on: another record for Ki
input: Can you share its Ki? I mean this compound: CO[C@@]12CC[C@@H](N[C@@H](CCC(=O)O)C(=O)O)[C@@H]3Oc4c(O)ccc5c4[C@@]31CCN(C)[C@@H]2C5.Cl.Cl [Compound 14b]
output: 11.6 nM

====

Measured pEC50 by item
- study.system: DOR (Homo sapiens)
- experiment.description: [35S]GTPγS binding assay, CHO-hDOR membranes
- condition.notes: [35S]GTPγS, CHO human DOR membranes
Bear in mind: pEC50 is minus log10 of a mol/L concentration; give just that figure.

# example entries with known answers
compound: CO[C@@]12CC[C@@H](N[C@@H](Cc3ccc(O)cc3)C(=O)O)[C@@H]3Oc4c(O)ccc5c4[C@@]31CCN(C)[C@@H]2C5.Cl.Cl [Compound 9b]
pEC50: 8.21

compound: CO[C@@]12CC[C@@H](N[C@@H](C(=O)O)C(C)C)[C@@H]3Oc4c(O)ccc5c4[C@@]31CCN(C)[C@@H]2C5 [Compound 16b]
pEC50: 8.89

We now examine a further compound.
input: Can you share its pEC50? I mean this compound: CO[C@@]12CC[C@H](N[C@@H](Cc3ccccc3)C(=O)O)[C@@H]3Oc4c(O)ccc5c4[C@@]31CCN(C)[C@@H]2C5 [Compound 4a]
output: 9.41

====

- study.system: KOR (Homo sapiens)
- Construct: host or cells: CHO (CHO-hKOR)
- experiment.description: [35S]GTPγS binding assay, CHO-hKOR membranes
- Format: biochemical
- condition.notes: partial agonist <85% of the response to U69,593
property.measured: functional profile at KOR (full/partial agonist)

Completed entries (count: 4):
compound: CO[C@@]12CC[C@H](N[C@@H](C(=O)O)C(C)C)[C@@H]3Oc4c(O)ccc5c4[C@@]31CCN(C)[C@@H]2C5 [Compound 16a]
assay.result: full agonists
//
compound: CO[C@@]12CC[C@@H](N[C@H](Cc3ccccc3)C(=O)O)[C@@H]3Oc4c(O)ccc5c4[C@@]31CCN(C)[C@@H]2C5 [Compound 17b]
assay.result: full agonists
//
compound: CO[C@@]12CC[C@@H](NC(C)C(=O)O)[C@@H]3Oc4c(O)ccc5c4[C@@]31CCN(C)[C@@H]2C5 (stereo in doubt) [Compound 15b]
assay.result: full agonists
//
compound: CO[C@@]12CC[C@@H](N[C@H](C(=O)O)C(C)C)[C@@H]3Oc4c(O)ccc5c4[C@@]31CCN(C)[C@@H]2C5
assay.result: partial agonist

input: # functional profile at KOR (full/partial agonist) lookup, item CO[C@@]12CC[C@H](N[C@H](C(=O)O)C(C)C)[C@@H]3Oc4c(O)ccc5c4[C@@]31CCN(C)[C@@H]2C5
output: partial agonist

====

- study.system: KOR (Cavia porcellus, UniProt P41144)
Entries and their pKi
Quick note: pKi values are minus log10 of concentrations in mol/L.

// known answers, use as guide
molecule: CO[C@@]12CCC(N[C@@H](CCC(=O)O)C(=O)O)[C@@H]3Oc4c(O)ccc5c4[C@@]31CCN(C)[C@@H]2C5 (stereo in doubt) [Compound 14a]
study.system: KOR (Cavia porcellus, UniProt P41144)
property.measured: pKi
assay.result: 7.06
--
molecule: CO[C@@]12CC[C@@H](NCCC(=O)O)[C@@H]3Oc4c(O)ccc5c4[C@@]31CCN(C)[C@@H]2C5 [Compound 20b]
study.system: KOR (Cavia porcellus, UniProt P41144)
property.measured: pKi
assay.result: 7.15
--
molecule: CO[C@@]12CC[C@H](N[C@H](C(=O)N[C@@H](Cc3ccc(O)cc3)C(=O)O)C(C)C)[C@@H]3Oc4c(O)ccc5c4[C@@]31CCN(C)[C@@H]2C5 [Compound 22a]
study.system: KOR (Cavia porcellus, UniProt P41144)
property.measured: pKi
assay.result: 7.16

# context switch: different molecule, same pKi
input: Item CO[C@@]12CC[C@@H](N[C@H](C(=O)O)C3CCCCC3)[C@@H]3Oc4c(O)ccc5c4[C@@]31CCN(C)[C@@H]2C5 [Compound 18b] has what recorded pKi?
output: 6.93
